Target: Replicase polyprotein 1ab (Severe acute respiratory syndrome-related coronavirus, UniProt P0C6X7)
Test: Inhibition of ATPase activity of SCV helicase assessed as phosphate release by colorimetric assay
// reported IC50 for each item listed

O=C(O)/C(O)=C/C(=O)c1cccc(OCc2ccccc2)c1 | > 50 µM
O=C(O)/C(O)=C/C(=O)c1ccccc1OCc1ccccc1 | > 50 µM
O=C(O)/C(O)=C/C(=O)c1ccccc1OCc1ccc(Cl)cc1 | > 50 µM

Prompt: Complete the entry with IC50 for O=C(O)/C(O)=C/C(=O)c1ccc(OCc2ccccc2)cc1
Completion: 41.3 µM

Prompt: Complete the entry with IC50 for O=C(O)/C(O)=C/C(=O)c1cccc(NCc2ccc(Cl)cc2)c1
Completion: > 50 µM

Prompt: Complete the entry with IC50 for O=C(O)/C(O)=C/C(=O)c1cccc(OCc2ccc(Cl)cc2)c1
Completion: 24.4 µM

Prompt: Complete the entry with IC50 for O=C(O)/C(O)=C/C(=O)c1cccc(NCc2ccccc2)c1
Completion: > 50 µM

Prompt: Complete the entry with IC50 for O=C(O)/C(O)=C/C(=O)c1ccc(OCc2ccc(Cl)cc2)cc1
Completion: > 50 µM
